Assay: Multi-component pharmacokinetics in rat plasma after oral administration of RB, RPA or RB-RPA extracts (UPLC-HRMS, non-compartmental analysis)
Format: in vivo, Sprague-Dawley rats
Details: rat plasma, oral administration of mixed extracts RB-RPA, mean ± SD, n = 7
Where a name gives a salt, the structure may show the parent alone.
parameter_measured: t1/2 (h)

- C[C@]12C[C@@H](O)[C@@H]3C[C@@]1(O[C@@H]1O[C@H](CO)[C@@H](O)[C@H](O)[C@H]1O)[C@@]3(COC(=O)c1ccccc1)C(=O)O2: 3.46
- CC1C2OC3(C)CC(=O)C1CC3(O)O2 (stereo not shown) [Paeonimetabolin I]: 7.11
- C[C@@]12C[C@@]3(O)O[C@@H](O1)[C@]1(CO)[C@H]3C[C@@]12O[C@@H]1O[C@H](CO)[C@@H](O)[C@H](O)[C@H]1O: 2.17
- O=S(=O)(O)Oc1cccc(O)c1O [Pyrogallol sulfate]: 7.54
